The measurements presented in this section are drawn from PubChem BioAssay AID2765.

System: MEF A1-2A-BIM cells, caspase 3/7 luminescence, 3 h
Assay: inducers of caspase signal in A1-dependent MEFs – cell-based, luminescence, retest, A1 inhibitor project, dose response (AID 2765)
The source made the active and inactive calls.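 How the source made its calls: active means half-maximal concentration for the rise in caspase light signal at or below ten times the top tested dose; inconclusive means flat fit between 30% and 70% activity, or unreliable curve fit; inactive means the rest.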
Hello, when you answer, please use one of the following outcomes: active, inactive

Worked examples, 5 molecules total:
{"molecule": "COc1ccc2c(-c3cc4ccc(OCc5ccc(F)cc5)cc4oc3=O)cc(=O)oc2c1", "cat": "active"}
{"molecule": "Cc1ccc(C#N)c(SCC(=O)Nc2nccs2)n1", "cat": "inactive"}
{"molecule": "O=C(CN1C(=O)COc2ccccc21)NCCCN1CCc2ccccc2C1", "cat": "inactive"}
{"molecule": "CCCN1C(=O)C(=O)c2cc(C)ccc21", "cat": "inactive"}
{"molecule": "CCNC(=O)/C(C#N)=C/c1c(N2CCN(C)CC2)nc2c(C)cccn2c1=O", "cat": "inactive"}

How was Cc1cc(C)cc(N(CC(=O)Nc2cccc(C)c2C)S(=O)(=O)c2c(C)[nH]c(=O)[nH]c2=O)c1 classified in this test?
inactive

Further, for Cc1ccc(S(=O)(=O)N(C)Cc2ccc(C(=O)N/N=C/c3ccc(OC(F)F)cc3)cc2)cc1 ?
inactive

Also Cc1ccc(NC(=O)c2cccc(S(=O)(=O)NCc3ccccc3)c2)nc1 ?
inactive

Input Cc1cc(C(=O)Nc2cccc3c2O[C@@H](CN(C)S(=O)(=O)c2ccccc2)[C@H](C)CN([C@@H](C)CO)C3=O)n(C)n1
inactive

Consider next the molecule COCCNC(=S)N(CCc1c(C)[nH]c2ccccc12)Cc1cccnc1 in the same way.
inactive

###

Tested on: MEF A1-2A-BIM cells, caspase 3/7 luminescence, 3 h
Assay: inducers of caspase signal in A1-dependent MEFs – cell-based, luminescence, retest, A1 inhibitor project, dose response (AID 2765)
Active and inactive are the calls of the source.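 The calls were made as follows: active = half-maximal concentration for the rise in caspase light signal at or below ten times the top tested dose; inconclusive = flat fit between 30% and 70% activity, or unreliable curve fit; inactive = the rest.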
Bench note: report the call from Yes = active, No = inactive

Solved cases (5 shown):
{"compound": "Cc1cccc(C)c1NC(=O)c1cnccn1", "cat": "No"}
{"compound": "COc1ccc(NS(=O)(=O)c2cccc(C(=O)OCC(=O)c3c(N)n(C)c(=O)n(C)c3=O)c2)cc1", "cat": "No"}
{"compound": "NS(=O)(=O)c1ccc(NC(=O)CN2CCc3ccccc32)cc1", "cat": "No"}
{"compound": "COc1ccc(NC(=O)CN2CCC(NC(=O)c3ccc(OC)cc3)CC2)cc1", "cat": "No"}
{"compound": "CN1C(C(=O)Nc2cccc(O)c2)=CC(c2ccco2)=NS1(=O)=O", "cat": "No"}

Name the outcome recorded for CC(C)(C)NC(=O)NC(=O)COC(=O)CNS(=O)(=O)/C=C/c1ccccc1 in the assay.
No

Continue with CC(Sc1nc(-c2ccccc2)cc(C(F)(F)F)n1)C(=O)N1CCCCC1 (stereo not given)
No

###

Test system: MEF A1-2A-BIM cells, caspase 3/7 luminescence, 3 h
Experiment: inducers of caspase signal in A1-dependent MEFs – cell-based, luminescence, retest, A1 inhibitor project, dose response (AID 2765)
Active and inactive are the calls of the source.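 Rule for the calls: active = half-maximal concentration for the rise in caspase light signal at or below ten times the top tested dose; inconclusive = flat fit between 30% and 70% activity, or unreliable curve fit; inactive = the rest.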
The reply should name one outcome from yes (1) = active, no (0) = inactive

Some solved entries appear below for comparison.
{"molecule": "Clc1ccccc1CN(Cc1ccccc1)c1ncnc2nc[nH]c12", "cat": "no (0)"}
{"molecule": "COc1ccc2[nH]c(=O)c(CN(CC3CCCO3)C(=O)Nc3ccccc3)cc2c1 (configuration not stated)", "cat": "no (0)"}

Which result was noted for this molecule in the test: Cc1ncc([N+](=O)[O-])n1Cc1cccc2ccccc12
no (0)

// repeat for CC(Oc1ccc(-c2nccc(-c3ccccn3)n2)cc1)C(=O)NN (configuration not stated) and report
no (0)

Same question for CSc1ccc(CNC(=O)Cn2nc(C)c3c(C)n(-c4ccc(C)cc4)nc3c2=O)cc1 please.
no (0)

Further, for O=C(NCCOC(=O)c1ccc(Cl)c(S(=O)(=O)N2CCCCC2)c1)c1ccncc1 ?
no (0)

Now this one: Cc1ccc(S(=O)(=O)n2ccc3c(OCCOCCNCc4ccc(F)cc4)cccc32)cc1
no (0)

How about Cc1cc(C(=O)CCl)c(C)n1CCc1ccc(Cl)cc1 ?
no (0)

Likewise for CCN(C(=O)c1ccc2c(=O)n3c(nc2c1)CCCCC3)c1ccccc1C ?
no (0)

Lookup C=CCOc1c2ccc(C(=O)N(CC)c3ccc(OC)cc3)cc2nn1C
no (0)

Consider next the molecule CN1CCc2cccc(Cl)c2CC1 in the same way.
no (0)

And the next one, Cc1cc(C)n(-c2nc(Nc3ccccc3C)nc(-n3nc(C)cc3C)n2)n1 ?
no (0)

Follow-up entry: Cc1cc(C)c(S(=O)(=O)N2CCCCCC2)cc1Br
no (0)

Now consider Cc1ccc(C(=O)Nc2ccc(N3CCOCC3)nc2N2CCOCC2)cc1 and answer again.
no (0)

Please give the result for COc1ccc(S(=O)(=O)N2CC(O)CC2C(=O)OCc2nc3sc(C)c(C)c3c(=O)[nH]2)cc1 (configuration not stated) too.
no (0)

Follow-up item: O=C(c1cc(C2CC2)nn1-c1ccccc1)N1CCN(S(=O)(=O)c2cccc(F)c2)CC1
no (0)

// next record CCOC(=O)CCCCCNC(=O)c1ccc(F)cc1F
no (0)

Can you check O=C(CCl)N=c1sccn1Cc1ccccc1Cl next?
no (0)

Same question for c1ccc(-c2sc3ccccc3c2-c2ccc(OCCN3CCOCC3)cc2)cc1 please.
no (0)

Here is the next molecule: CCN(CC)C1CCN(C(=O)c2ccc(OC3CCN(CCc4ccccc4)CC3)cc2)C1 (configuration not stated)
no (0)

Follow-up item: CCOC(=O)/C(=C\c1ccc([N+](=O)[O-])cc1)C(=O)c1cc(C(C)=O)c(Nc2ccccc2)s1
yes (1)

Now the same for CSc1ccccc1NC(=O)CCn1c(=O)sc2ccccc21
no (0)

###

System: MEF A1-2A-BIM cells, caspase 3/7 luminescence, 3 h
Assay: inducers of caspase signal in A1-dependent MEFs – cell-based, luminescence, retest, A1 inhibitor project, dose response (AID 2765)
Activity calls are given as the source filed them.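 How the source made its calls: active means half-maximal concentration for the rise in caspase light signal at or below ten times the top tested dose; inconclusive means flat fit between 30% and 70% activity, or unreliable curve fit; inactive means the rest.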
Outcome field: choose from 1 (yes) (active), 0 (no) (inactive)

{"compound": "COc1ccccc1NS(=O)(=O)c1ccc(C)c(C(=O)N2CCN(c3ccc(O)cc3)CC2)c1", "experimental system": "MEF A1-2A-BIM cells, caspase 3/7 luminescence, 3 h", "cat": "0 (no)"}
{"compound": "CCCN1CCN(CCCNC(=O)CCCn2nc(C)c3sc4ccccc4c3c2=O)CC1", "experimental system": "MEF A1-2A-BIM cells, caspase 3/7 luminescence, 3 h", "cat": "0 (no)"}
{"compound": "COc1ccc(/C=C2\\SC(=O)N(CCC(=O)N(C)C3CCS(=O)(=O)C3)C2=O)cc1 (stereo not given)", "experimental system": "MEF A1-2A-BIM cells, caspase 3/7 luminescence, 3 h", "cat": "0 (no)"}
{"compound": "S=C(Nc1ccccc1)N1N=C(c2cccs2)CC1c1cccs1 (stereo not given)", "experimental system": "MEF A1-2A-BIM cells, caspase 3/7 luminescence, 3 h", "cat": "0 (no)"}
{"compound": "CCOc1cc(C(=O)CSc2nnc(CNc3ccc(Cl)cc3)o2)ccc1NC(=O)CC", "experimental system": "MEF A1-2A-BIM cells, caspase 3/7 luminescence, 3 h", "cat": "1 (yes)"}
{"compound": "CCc1noc(C)c1C(=O)N(CC)CC(=O)NCc1ccc(Cl)cc1", "experimental system": "MEF A1-2A-BIM cells, caspase 3/7 luminescence, 3 h", "cat": "0 (no)"}

Which outcome was entered for the compound O=S1(=O)C=C(Sc2nnc(-c3ccccc3)o2)c2ccccc21 in this test?
0 (no)

Moving on to the next compound: O=C(Cn1c(=O)c2cccn2c2cccnc21)N1CCN(c2ccc(Cl)cc2)CC1
0 (no)

And then COC(=O)c1cc(CNC(=O)CC(C)c2ccccc2)ccc1OC (stereo not given) , what is it?
0 (no)

Same question, CCSc1ccc(-c2nn(-c3ccccc3)cc2/C=C(/C#N)C(=O)NC)cc1 this time
0 (no)

Similarly, O=C(O)c1ccccc1SCCS(=O)(=O)c1ccc(Cl)cc1Cl ?
0 (no)

Proceed to CCC(C)[C@@H](C(=O)NCC1CCC(C(=O)O)CC1)n1nnc2ccccc2c1=O (stereo not given in full)
0 (no)

Same thing, different compound: CC(=O)OC(C)(C)/C=C/C(=O)[C@](C)(O)C1[C@H](O)C[C@@]2(C)C3CC=C4C(C[C@H](O)C(=O)C4(C)C)[C@]3(C)C(=O)C[C@]12C (stereo not given in full)
0 (no)

And what about the compound COc1cc(/C=C(/C#N)C(=O)NCCc2c[nH]c3ccccc23)ccc1OCc1ccccc1F ?
0 (no)

Moving on to the next compound: O=C(COC(=O)c1ccccc1Br)NC1CCCCCCC1
0 (no)

Now the same for O=C(CC1CC2CCC1C2)N1CCN(S(=O)(=O)c2ccccc2C(F)(F)F)CC1 (stereo not given)
0 (no)

// query: Fc1ccc(NC(=S)NCc2ccccc2Cl)cc1
0 (no)

Thanks! And Cc1csc(NC(=O)c2cccc(S(=O)(=O)N3CCN(C)CC3)c2)n1 ?
0 (no)

Cool, now N#C/C(=C\c1ccc(OCc2ccccc2)cc1)C(=O)Nc1nc2c(s1)CCN(Cc1ccccc1)C2
0 (no)

And what about the compound COc1ccc(-c2ccc(NS(=O)(=O)c3cc([N+](=O)[O-])c(C)c([N+](=O)[O-])c3)cc2)nn1 ?
0 (no)
